Biological target: UniProt:P23945
Sequence (P23945 18-695): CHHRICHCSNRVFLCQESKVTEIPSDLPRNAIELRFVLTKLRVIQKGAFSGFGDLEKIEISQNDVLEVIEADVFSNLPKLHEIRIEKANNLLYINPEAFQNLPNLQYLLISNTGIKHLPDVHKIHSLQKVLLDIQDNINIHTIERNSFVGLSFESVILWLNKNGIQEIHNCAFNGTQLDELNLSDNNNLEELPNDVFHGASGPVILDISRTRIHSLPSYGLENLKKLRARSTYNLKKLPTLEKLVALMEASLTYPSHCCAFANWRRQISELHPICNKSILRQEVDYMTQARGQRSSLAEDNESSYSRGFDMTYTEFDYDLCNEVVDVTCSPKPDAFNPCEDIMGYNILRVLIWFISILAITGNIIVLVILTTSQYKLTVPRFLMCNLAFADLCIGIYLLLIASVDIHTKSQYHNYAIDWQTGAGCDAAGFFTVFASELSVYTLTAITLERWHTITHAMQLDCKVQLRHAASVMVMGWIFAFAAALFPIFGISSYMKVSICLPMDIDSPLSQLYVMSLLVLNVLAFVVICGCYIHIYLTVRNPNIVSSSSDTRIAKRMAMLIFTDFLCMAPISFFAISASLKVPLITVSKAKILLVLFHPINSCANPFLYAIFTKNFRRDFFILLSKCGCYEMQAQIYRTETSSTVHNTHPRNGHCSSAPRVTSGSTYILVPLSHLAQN
Test: In Vitro Bio-test Procedure of Agonists and Antagonists to the FSH Receptor (cAMP accumulation in CHO-3D2 cells)
Assay type: cell-based
Set-up: expressed in transfected cells; host or cells: CHO-3D2 cells
Method: In Vitro Bio-test Procedure of Agonists and Antagonists to the FSH Receptor The compounds were subsequently diluted in sterile procedure medium (Optimem (Gibco/BRL, Grand Island, N.Y.)/0.1% BSA) prior to use in the bio-procedure. […] Procedure: On the day of procedure, the wells were washed two times with 100 ul/well of pre-warmed (37 deg C.) procedure medium. […] CAMP accumulation in the medium was measured by radioimmunoassay. […] Analysis of Results: cAMP accumulation was expressed as fmol/mL. […]
pIC50: −log10 of the molar value.
Respond with criterion met for pIC50 values of 5 and above, criterion not met for values below.

Reported pIC50 reaches at least 5 for CS(=O)(=O)c1ccc(C(=O)Nc2ccc(/C=C/c3ccc(NC(=O)c4ccc(S(C)(=O)=O)s4)cc3S(=O)(=O)O)c(S(=O)(=O)O)c2)s1 [Example 32b] ?
criterion met

Reported pIC50 reaches at least 5 for CS(=O)(=O)c1ccc(C(=O)Nc2ccc(/C=C/c3ccc(NC(=O)c4ccc(S(C)(=O)=O)c(S(=O)(=O)N5CCOCC5)c4)cc3S(=O)(=O)O)c(S(=O)(=O)O)c2)cc1S(=O)(=O)N1CCOCC1 [Example 30d] ?
criterion met

Reported pIC50 reaches at least 5 for COc1ccc(C(=O)Nc2ccc(Sc3ccc(NC(=O)c4ccc(OC)c(S(=O)(=O)N5CCOCC5)c4)cc3S(=O)(=O)O)c(S(=O)(=O)O)c2)cc1S(=O)(=O)N1CCOCC1 [Example 33h] ?
criterion not met

Reported pIC50 reaches at least 5 for COCCNS(=O)(=O)c1cc(C(=O)Nc2ccc(/C=C/c3ccc(NC(=O)c4ccc(OC)c(S(=O)(=O)NCCOC)c4)cc3S(=O)(=O)O)c(S(=O)(=O)O)c2)ccc1OC [Example 30m] ?
criterion met

###

Please provide measured pIC50 for the entries that follow.
Target: FSH receptor (Homo sapiens)
Assay: In Vitro Bio-test Procedure of Agonists and Antagonists to the FSH Receptor (cAMP accumulation in CHO-3D2 cells)
Assay type: cell-based
Design: expressed in transfected cells; host or cells: CHO-3D2 cells
Settings: antagonist mode, inhibition of hFSH-induced cAMP accumulation (ED20 of FSH, […]), CHO-3D2 cells
Recall that pIC50 is obtained by taking minus log10 of the concentration measured in molar.

Supply measured pIC50 of COC(=O)C=CCS(=O)(=O)c1cccc(C(=O)Nc2ccc(C=Cc3ccc(NC(=O)c4cccc(S(=O)(=O)CC=CC(=O)OC)c4)cc3S(=O)(=O)O)c(S(=O)(=O)O)c2)c1 [Example 32e] in your reply.
5.05

Supply measured pIC50 of CS(=O)(=O)c1ccc(C(=O)Nc2ccc(/C=C/c3ccc(NC(=O)c4ccc(S(C)(=O)=O)c([N+](=O)[O-])c4)cc3S(=O)(=O)O)c(S(=O)(=O)O)c2)cc1[N+](=O)[O-] [Example 30c] in your reply.
5.44

Supply measured pIC50 of COc1ccc(C(=O)Nc2ccc(/C=C/c3ccc(NC(=O)c4ccc(S(C)(=O)=O)cc4)cc3S(=O)(=O)O)c(S(=O)(=O)O)c2)cc1S(=O)(=O)N1CCOCC1 [Example 30g] in your reply.
5.60

###

Target: FSH receptor (Homo sapiens, UniProt P23945)
Experiment: In Vitro Bio-test Procedure of Agonists and Antagonists to the FSH Receptor (cAMP accumulation in CHO-3D2 cells)
Format: cell-based
Set-up: expressed in transfected cells; host or cells: CHO-3D2 cells
Parameter: IC50 (µM)
Hi! Could you send only the number? It should be in µM, unit omitted.

Supply measured IC50 of COCCOc1ccc(C(=O)Nc2ccc(CCc3ccc(NC(=O)c4ccc(OCCOC)c(S(=O)(=O)N5CCOCC5)c4)cc3S(=O)(=O)O)c(S(=O)(=O)O)c2)cc1S(=O)(=O)N1CCOCC1 [Example 43f] in your reply.
6.4

Supply measured IC50 of O=C(Nc1ccc(CCc2ccc(NC(=O)c3cccc(S(=O)(=O)N4CCOCC4)c3)cc2S(=O)(=O)O)c(S(=O)(=O)O)c1)c1cccc(S(=O)(=O)N2CCOCC2)c1 [Example 43d] in your reply.
13

Supply measured IC50 of CSc1ccc(C(=O)Nc2ccc(/C=C/c3ccc(NC(=O)c4ccc(S(C)(=O)=O)c([N+](=O)[O-])c4)cc3S(=O)(=O)O)c(S(=O)(=O)O)c2)cc1S(=O)(=O)N1CCOCC1 [Example 30e] in your reply.
0.9

Supply measured IC50 of CCN(CC)S(=O)(=O)c1cc(C(=O)Nc2ccc(/C=C/c3ccc(NC(=O)c4ccc(OC)c(S(=O)(=O)N(CC)CC)c4)cc3S(=O)(=O)O)c(S(=O)(=O)O)c2)ccc1OC [Example 33c] in your reply.
4.5

Supply measured IC50 of CCSc1ccc(C(=O)Nc2ccc(/C=C/c3ccc(NC(=O)c4ccc(SCC)c(S(=O)(=O)N5CCOCC5)c4)cc3S(=O)(=O)O)c(S(=O)(=O)O)c2)cc1S(=O)(=O)N1CCOCC1 [Example 32i] in your reply.
4.9

Supply measured IC50 of NC(=O)CS(=O)(=O)c1ccc(C(=O)Nc2ccc(/C=C/c3ccc(NC(=O)c4ccc(S(=O)(=O)CC(N)=O)cc4)cc3S(=O)(=O)O)c(S(=O)(=O)O)c2)cc1 [Example 37b] in your reply.
1.2

Supply measured IC50 of O=C(CS(=O)(=O)c1ccc(C(=O)Nc2ccc(/C=C/c3ccc(NC(=O)c4ccc(S(=O)(=O)CC(=O)NCCO)cc4)cc3S(=O)(=O)O)c(S(=O)(=O)O)c2)cc1)NCCO [Example 37a] in your reply.
2.1

###

Target: FSH receptor (Homo sapiens, UniProt P23945)
Assay: FSH Receptor Radioligand Membrane Binding Standard Pharmacological Test Procedure
Set-up: expressed in transfected cells
Details: [125I]FSH binding to membranes of CHO cells stably transfected with the human FSH receptor
Method: FSH Receptor Radioligand Membrane Binding Standard Pharmacological Test Procedure […] Receptor Binding Test procedure: Membrane homogenate (100 μl) was added to each well of a 96-well microtiter plate (Falcon # 3077). […] Total bound counts were determined by adding 50 μl binding buffer containing 4% DMSO to the designated wells. […] The radioactivity present on each of the disks was measured using a gamma counter. […]
Parameter: pIC50
Recall that pIC50 is obtained by taking minus log10 of the concentration measured in molar.

Fetch value of pIC50 on FSH receptor (Homo sapiens, UniProt P23945) for COc1ccc(C(=O)Nc2ccc(/C=C/c3ccc(NC(=O)c4ccc(OC)c(S(=O)(=O)N5CCN(C=O)CC5)c4)cc3S(=O)(=O)O)c(S(=O)(=O)O)c2)cc1S(=O)(=O)N1CCN(C=O)CC1 [Example 34b] .
5.80

Fetch value of pIC50 on FSH receptor (Homo sapiens, UniProt P23945) for O=C(O)CS(=O)(=O)c1ccc(C(=O)Nc2ccc(C=Cc3ccc(NC(=O)c4ccc(S(=O)(=O)CC(=O)O)cc4)cc3S(=O)(=O)O)c(S(=O)(=O)O)c2)cc1 [Example 36a] .
4.80

Fetch value of pIC50 on FSH receptor (Homo sapiens, UniProt P23945) for O=C(Nc1ccc(CCc2ccc(NC(=O)c3ccc(CC4CCCO4)c(S(=O)(=O)N4CCOCC4)c3)cc2S(=O)(=O)O)c(S(=O)(=O)O)c1)c1ccc(CC2CCCO2)c(S(=O)(=O)N2CCOCC2)c1 (centres unmarked) [Example 32q] .
5.62

Fetch value of pIC50 on FSH receptor (Homo sapiens, UniProt P23945) for COCCOCCOc1ccc(C(=O)Nc2ccc(/C=C/c3ccc(NC(=O)c4ccc(OCCOCCOC)c(S(=O)(=O)N5CCOCC5)c4)cc3S(=O)(=O)O)c(S(=O)(=O)O)c2)cc1S(=O)(=O)N1CCOCC1 [Example 30a] .
5.80

Fetch value of pIC50 on FSH receptor (Homo sapiens, UniProt P23945) for COCCN(CCOC)S(=O)(=O)c1cc(C(=O)Nc2ccc(/C=C/c3ccc(NC(=O)c4ccc(OC)c(S(=O)(=O)N(CCOC)CCOC)c4)cc3S(=O)(=O)O)c(S(=O)(=O)O)c2)ccc1OC [Example 30o] .
5.62
